# systemUnderTest: Dihydroorotate dehydrogenase (quinone), mitochondrial (Plasmodium falciparum (isolate 3D7)) (UniProt Q08210)
# Sequence (Q08210 whole entry, looked up): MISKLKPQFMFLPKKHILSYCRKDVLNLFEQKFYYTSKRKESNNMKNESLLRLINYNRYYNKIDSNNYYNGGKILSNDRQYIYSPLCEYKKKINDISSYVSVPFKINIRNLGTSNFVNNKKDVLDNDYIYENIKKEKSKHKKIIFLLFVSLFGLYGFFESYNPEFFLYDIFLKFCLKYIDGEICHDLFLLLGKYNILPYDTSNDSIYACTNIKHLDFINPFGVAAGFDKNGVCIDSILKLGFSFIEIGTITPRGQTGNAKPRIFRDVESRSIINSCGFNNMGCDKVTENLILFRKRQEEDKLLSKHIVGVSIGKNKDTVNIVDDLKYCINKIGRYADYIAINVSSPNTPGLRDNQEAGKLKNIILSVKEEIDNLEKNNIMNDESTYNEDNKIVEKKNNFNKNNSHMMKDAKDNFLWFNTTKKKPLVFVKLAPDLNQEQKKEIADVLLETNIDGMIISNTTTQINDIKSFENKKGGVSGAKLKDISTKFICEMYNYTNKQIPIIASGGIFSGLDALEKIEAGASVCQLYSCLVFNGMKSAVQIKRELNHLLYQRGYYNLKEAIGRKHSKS
# procedureDetails: PfDHODH enzyme inhibitors, primary screen, biochemical, C-terminal His tag, absorbance 600 nm (AID 1175);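 further: recombinant parasite enzyme with a five histidine tag at its C terminus; test concentration not given here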
# testConditions: DCIP absorbance 600 nm, higher = more signal, called active from +8 up or from −8 down
Activity calls are given as the source filed them.
observationType: composite z-score

C=CCC(OC(C)=O)[C@@H]1[C@@H](N(Cc2cc3ccccc3o2)C(=O)c2ccc(C)cc2)c2cc(OCCCO)ccc2N1C(=O)Cc1ccc2ccccc2c1 (some centres not stated): 0.507 (inactive)
COc1c(C)cc(-c2cc3c(c(-c4ccccc4)n2)[Si](C(C)C)(C(C)C)OC3)cc1C: -0.149 (inactive)
COc1ccc([Si](C)(C)[C@@H]2[C@@H](CCO)O[C@]3(C(=O)N(Cc4cccc(N5C(=O)c6ccccc6Oc6ccccc65)c4)c4ccccc43)[C@H]2C)cc1: 0.786 (inactive)
NC(=O)NCC#Cc1ccc2c(c1)[C@]1(C(=O)N2)[C@H](C(=O)O)[C@H]2C(=O)O[C@H](c3ccccc3)[C@H](c3ccccc3)N2[C@@H]1c1ccccc1OCCO: -0.988 (inactive)
CC(C)N1CC=CC23O[C@@H]4C=CCOC(=O)[C@@H]4[C@H]2C(=O)N(C(C)CO)[C@@H]3C1=O (some centres not stated): -0.218 (inactive)
O=C1C[C@@](C(=O)NCC(F)(F)F)(c2ccc([N+](=O)[O-])cc2)[C@@H](c2ccc(CO)cc2)N1C1CCCCC1: -0.356 (inactive)

Next:
In: composite z-score lookup needed for C=C(CCCC)/C(=C/C[C@@H](OC(C)=O)c1ccc(CO)o1)c1cc(C(=O)OC)ccc1OC , thanks.
Out: -2.63 (inactive)

====

# procedureDetails: small-molecule microarray binders of probe aLefty2, primary screen, biochemical, biotinylated probe, 635/667 nm fluorescence (AID 1094);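 further: score merges spot fluorescence near 667 nm with spot signal-to-noise ratio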
# testConditions: higher = more signal
Classification field: enter yes for composite z-score values not below -0.05, no for values below it.

COc1c(C)cc(-c2cc3c(c(Cc4ccccc4)n2)[Si](C(C)C)(C(C)C)OC3)cc1C: no

In: Hi, just wondering whether COCCOC(=O)N1C(=O)[C@@]2(c3cc(C#CC4=CCCCC4)ccc31)[C@H](C(=O)N1CCN(c3ncccn3)CC1)[C@H]1C(=O)O[C@H](c3ccccc3)[C@H](c3ccccc3)N1[C@@H]2c1ccc(O)cc1 shows composite z-score of -0.05 or higher.
Out: yes

In: Hi, just wondering whether COC(=O)Cn1c(C(=O)N2CCCC2)cc2c1C[C@H]1CN(C(=O)c3ccccc3)[C@@](Cc3ccc(F)cc3)(C(=O)OC)[C@@H]21 shows composite z-score of -0.05 or higher.
Out: yes

In: Hi, just wondering whether CC(C)N1C(=O)[C@@]2(c3ccc([N+](=O)[O-])cc3)CC(=O)N(C3CCCCC3)[C@@H]2c2ccc(CO)cc21 shows composite z-score of -0.05 or higher.
Out: no

In: Hi, just wondering whether CC=CC(O)C1C=CC2C(=O)N(c3ccccc3)C(=O)C2N1Nc1ccccc1 (stereo not drawn) shows composite z-score of -0.05 or higher.
Out: yes

In: Hi, just wondering whether CC1CC/C=C\[C@H]2OC34C=CCN(C(C)C)C(=O)[C@H]3N(CCCCCO)C(=O)[C@@H]4C2C(=O)O1 (stereo partly drawn) shows composite z-score of -0.05 or higher.
Out: no
